- assayed_target: DAT (Rattus norvegicus)
- Sequence (P23977 whole entry): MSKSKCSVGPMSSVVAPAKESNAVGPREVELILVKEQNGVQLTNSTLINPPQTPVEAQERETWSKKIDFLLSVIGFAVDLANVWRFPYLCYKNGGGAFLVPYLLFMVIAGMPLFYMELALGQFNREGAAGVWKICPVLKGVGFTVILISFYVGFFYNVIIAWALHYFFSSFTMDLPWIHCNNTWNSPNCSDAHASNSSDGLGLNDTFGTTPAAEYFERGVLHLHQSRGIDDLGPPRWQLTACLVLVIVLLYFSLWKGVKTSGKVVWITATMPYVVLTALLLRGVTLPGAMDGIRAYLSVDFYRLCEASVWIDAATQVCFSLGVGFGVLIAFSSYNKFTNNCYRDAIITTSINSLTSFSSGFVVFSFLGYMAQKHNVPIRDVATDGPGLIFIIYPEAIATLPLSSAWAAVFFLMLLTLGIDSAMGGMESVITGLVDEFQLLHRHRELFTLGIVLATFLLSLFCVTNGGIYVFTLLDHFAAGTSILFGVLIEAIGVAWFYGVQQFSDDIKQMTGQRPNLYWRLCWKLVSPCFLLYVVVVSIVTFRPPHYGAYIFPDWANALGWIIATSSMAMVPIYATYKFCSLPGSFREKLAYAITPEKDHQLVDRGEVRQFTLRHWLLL
- test_details: Inhibition of [3H]WIN35,428 binding at the DAT
pIC50: −log10 of the molar value.
attribute_measured: pIC50

query: What value of measured pIC50 is listed for `COC(=O)[C@H]1[C@@H](c2ccc(S(C)(=O)=O)cc2)C[C@@H]2CC[C@H]1N2C` ?
result: < 5.00

###

- assayed_target: NET (Rattus norvegicus, UniProt Q63380)
- Sequence (Q63380 1-617): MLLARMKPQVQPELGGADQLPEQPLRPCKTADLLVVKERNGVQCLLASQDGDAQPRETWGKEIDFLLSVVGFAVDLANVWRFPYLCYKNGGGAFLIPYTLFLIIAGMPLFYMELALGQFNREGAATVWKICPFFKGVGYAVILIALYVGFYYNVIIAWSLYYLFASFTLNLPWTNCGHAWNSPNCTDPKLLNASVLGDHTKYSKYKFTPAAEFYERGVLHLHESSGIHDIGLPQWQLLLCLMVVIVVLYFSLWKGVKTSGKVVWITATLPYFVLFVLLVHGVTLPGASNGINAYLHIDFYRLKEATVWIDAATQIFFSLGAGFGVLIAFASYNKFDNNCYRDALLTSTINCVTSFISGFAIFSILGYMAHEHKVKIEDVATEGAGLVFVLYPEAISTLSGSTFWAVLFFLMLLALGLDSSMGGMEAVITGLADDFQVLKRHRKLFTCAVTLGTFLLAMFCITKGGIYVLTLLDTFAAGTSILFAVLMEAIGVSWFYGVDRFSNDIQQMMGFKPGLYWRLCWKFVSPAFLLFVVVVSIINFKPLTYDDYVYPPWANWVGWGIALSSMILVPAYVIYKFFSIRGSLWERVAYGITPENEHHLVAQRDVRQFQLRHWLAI
- test_details: Inhibition of [3H]nisoxetine binding at the NET
Reported Ki values for the following compounds.
Give your result as the value with the unit written after it.

# count of solved cases: 3
- compound: "COC(=O)[C@H]1[C@@H](c2ccc(SC(C)C)cc2)C[C@@H]2CC[C@H]1N2C [7c]"
  Ki: "129 nM"
- compound: "COC(=O)[C@H]1[C@@H](c2ccc(SC)c(Br)c2)C[C@@H]2CC[C@H]1N2C [7e]"
  Ki: "121 nM"
- compound: "COC(=O)[C@H]1[C@@H](c2ccc([S+](C)[O-])c(Br)c2)C[C@@H]2CC[C@H]1N2C (stereo partly shown) [7f]"
  Ki: "690 nM"

Consider now this further compound.
query: Ki lookup needed for COC(=O)[C@H]1[C@@H](c2ccc(SC)cc2)C[C@@H]2CC[C@H]1N2C [7a] , thanks.
result: 220 nM
